Compiled literature pKi, tested on Orexin receptor type 2 (Homo sapiens, UniProt O43614).
In textbook form, pKi equals minus log to base ten of the concentration in mol/L.

See these solved cases before continuing.
| compound | observed measurement |
| --- | --- |
| Cc1ccc(-n2nccn2)c(C(=O)N2CCCCC(COc3ccc(F)c(C)c3)C2)c1 (centres unmarked) | 8.10 |
| Cc1ccc(-c2ncco2)c(C(=O)N2CC(COc3ccc(F)cn3)CCCC2C)c1 (centres unmarked) | 7.89 |
| C[C@H]1[C@H](Nc2nc3ccccc3o2)CCCN1C(=O)c1ccc(F)cc1-c1ncccn1 (relative stereo) | 6.25 |

Now consider a different compound.
Which pKi value is on record for [2H]c1c(C([2H])([2H])[2H])nc(N2CC3CN(C(=O)c4cccc(F)c4-c4ncccn4)CC3C2)nc1C([2H])([2H])[2H] (centres unmarked) ?
7.74
